Biological target: human PD-1 (Jurkat-PD-1 cells) / PE-labeled human PD-L1-Ig (Homo sapiens, UniProt Q15116)
Construct: expressed in transfected cells; host or cells: Jurkat cell line over-expressing human PD-1
Sequence (Q15116 25-288): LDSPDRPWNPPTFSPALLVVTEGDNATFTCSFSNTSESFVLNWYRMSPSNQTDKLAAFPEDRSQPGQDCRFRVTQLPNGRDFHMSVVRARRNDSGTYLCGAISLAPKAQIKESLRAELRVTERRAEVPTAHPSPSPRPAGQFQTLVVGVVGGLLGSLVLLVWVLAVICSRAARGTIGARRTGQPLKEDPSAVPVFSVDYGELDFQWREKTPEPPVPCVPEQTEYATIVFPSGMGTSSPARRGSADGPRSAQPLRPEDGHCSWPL
Assay: Jurkat-PD-1 Cell Binding High-Content Screening Assay (CBA); Jurkat hPD1-PDL1 assay
Conditions: Jurkat cell line over-expressing human PD-1; PE-labeled PD-L1-Ig 20 nM final; compound incubated 2 hours at 37° C.; read-out: Jurkat HPD1-PDL1 IC50
Positions of bridges follow the written chain, without caps; N, C: chain ends. Non-standard residues stand in square brackets, D forms with d. Residues, ends and D or L forms follow the SMILES beside them. Bip = N[C@@H](Cc1ccc(-c2ccccc2)cc1)C(=O)O; Phe(4-CN) = N#Cc1ccc(C[C@H](N)C(=O)O)cc1; NMeA = CN[C@@H](C)C(=O)O; Sar = CNCC(=O)O
recorded metric: IC50 (nM)

compound="CC(C)C[C@@H]1NC(=O)[C@H](Cc2c[nH]c3ccccc23)NC(=O)[C@H](CC(=O)O)NC(=O)[C@H](Cc2ccc(O)cc2)NC(=O)[C@H](Cc2ccc(C#N)cc2)NC(=O)CSC[C@@H](C(=O)NCC(N)=O)NC(=O)[C@H](CO)NC(=O)[C@H](C(C)C)NC(=O)[C@H](CC(C)C)NC(=O)[C@H](CC(N)=O)NC(=O)CN(C)C(=O)[C@H](C)N(C)C(=O)[C@H](C(C)C)NC(=O)[C@H](Cc2ccc(-c3ccccc3)cc2)NC1=O [Example 1128] ({CH2CO}-[Phe(4-CN)]YDWL[Bip]V[NMeA][Sar]NLVSCG-NH2; thioether N-14)" target_of_assay="human PD-1 (Jurkat-PD-1 cells) / PE-labeled human PD-L1-Ig (Homo sapiens, UniProt Q15116)" recorded_metric=IC50 quantitative_result=490

====

Biological target: human PD-1 (Jurkat-PD-1 cells) / PE-labeled human PD-L1-Ig (Homo sapiens, UniProt Q15116)
Construct: expressed in transfected cells; host or cells: Jurkat cell line over-expressing human PD-1
Test: Jurkat-PD-1 Cell Binding High-Content Screening Assay (CBA); Jurkat hPD1-PDL1 assay
Conditions: Jurkat cell line over-expressing human PD-1; PE-labeled PD-L1-Ig 20 nM final; compound incubated 2 hours at 37° C.; read-out: Jurkat HPD1-PDL1 IC50
Positions of bridges follow the written chain, without caps; N, C: chain ends. Non-standard residues stand in square brackets, D forms with d. Residues, ends and D or L forms follow the SMILES beside them. Bip = N[C@@H](Cc1ccc(-c2ccccc2)cc1)C(=O)O; NMeA = CN[C@@H](C)C(=O)O; Dab = NCC[C@H](N)C(=O)O; Sar = CNCC(=O)O
recorded metric: IC50 (nM)

molecule="CC(C)C[C@@H]1NC(=O)[C@H](Cc2c[nH]c3ccccc23)NC(=O)[C@H](CC(=O)O)NC(=O)[C@H](Cc2ccc(O)cc2)NC(=O)[C@H](Cc2ccccc2)NC(=O)CSC[C@@H](C(=O)NCC(N)=O)NC(=O)[C@H](CO)NC(=O)[C@H](C(C)C)NC(=O)[C@H](CC(C)C)NC(=O)[C@H](CCN)NC(=O)CN(C)C(=O)[C@H](C)N(C)C(=O)[C@H](C(C)C)NC(=O)[C@H](Cc2ccc(-c3ccccc3)cc2)NC1=O [Example 1069] ({CH2CO}-FYDWL[Bip]V[NMeA][Sar][Dab]LVSCG-NH2; thioether N-14)" target_of_assay="human PD-1 (Jurkat-PD-1 cells) / PE-labeled human PD-L1-Ig (Homo sapiens, UniProt Q15116)" quantitative_result=160

Sourced from patent US20240360178A1
